- Assayed Target: Jak2 (UniProt O60674)
- Sequence (O60674 whole entry, looked up): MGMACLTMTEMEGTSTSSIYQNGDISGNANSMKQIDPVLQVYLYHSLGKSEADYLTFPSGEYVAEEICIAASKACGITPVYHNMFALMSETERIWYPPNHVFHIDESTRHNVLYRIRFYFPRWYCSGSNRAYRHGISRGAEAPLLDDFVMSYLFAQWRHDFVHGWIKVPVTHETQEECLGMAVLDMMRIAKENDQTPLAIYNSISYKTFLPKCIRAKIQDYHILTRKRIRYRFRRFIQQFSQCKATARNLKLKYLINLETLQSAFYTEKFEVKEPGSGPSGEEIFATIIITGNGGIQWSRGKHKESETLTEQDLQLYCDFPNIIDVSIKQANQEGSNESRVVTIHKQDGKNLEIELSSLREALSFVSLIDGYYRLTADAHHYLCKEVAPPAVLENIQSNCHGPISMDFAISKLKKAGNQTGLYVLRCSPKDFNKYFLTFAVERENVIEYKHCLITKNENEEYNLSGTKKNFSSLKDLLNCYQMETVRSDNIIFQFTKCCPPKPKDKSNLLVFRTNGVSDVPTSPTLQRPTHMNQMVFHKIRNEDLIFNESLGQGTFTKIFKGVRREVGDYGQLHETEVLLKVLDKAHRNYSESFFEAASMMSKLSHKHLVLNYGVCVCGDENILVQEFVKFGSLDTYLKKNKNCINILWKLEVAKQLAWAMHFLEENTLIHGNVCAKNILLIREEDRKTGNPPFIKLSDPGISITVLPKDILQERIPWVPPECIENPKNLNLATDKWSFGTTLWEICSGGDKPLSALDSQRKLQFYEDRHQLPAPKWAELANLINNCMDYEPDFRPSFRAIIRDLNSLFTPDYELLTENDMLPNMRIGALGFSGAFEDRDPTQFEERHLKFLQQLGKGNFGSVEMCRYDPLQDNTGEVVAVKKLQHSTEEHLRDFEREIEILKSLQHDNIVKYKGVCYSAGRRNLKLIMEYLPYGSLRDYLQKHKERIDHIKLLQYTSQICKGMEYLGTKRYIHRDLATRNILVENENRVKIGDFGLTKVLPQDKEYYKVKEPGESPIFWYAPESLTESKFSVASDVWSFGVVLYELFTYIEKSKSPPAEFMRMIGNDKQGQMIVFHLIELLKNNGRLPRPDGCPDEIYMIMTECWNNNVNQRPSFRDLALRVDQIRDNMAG
- Assay Name: phosphorylation enrichment, bacterial display (enrichment ratio); higher = better substrate or ligand; peptides without Tyr show the background
Listing of recorded phosphorylation enrichment by entry.

{"Sequence": "LPSKDYAEVRR [HP_Y272_G276R]", "phosphorylation enrichment": 0.539}
{"Sequence": "RMETEYGPSVT [MXRA5_Y2717]", "phosphorylation enrichment": 0.985}
{"Sequence": "SENPKYPEVGD [TMEM43_Y233]", "phosphorylation enrichment": 0.891}

Record summary for TYEPNYGTVKR [RAPGEF6_Y1447_Q1452R] : reported phosphorylation enrichment = 0.604

Per the record, TAALWYIFSHT [ENG_Y612_YF] has phosphorylation enrichment of 1.36

Entry CGTPTYLAPEV [CHEK2_Y390] , phosphorylation enrichment reported as 1.9

Recorded result, HDHYGYRQSVT [CD55_Y245_R240H] , phosphorylation enrichment: 1.06

For record PQIVNYSPDCI [LDHB_Y128_K127N] the listed phosphorylation enrichment is 0.254

Notebook: LLEGKYEWQEV [CDKN1B_Y74_P69L] , phosphorylation enrichment read as 3

Entry GEDLSYGDVPP [IRS1_Y151] — recorded phosphorylation enrichment = 0.995

Measured phosphorylation enrichment of EQKKFSNAMKK [SCN5A_Y1495_Y1495S_YF] : 0.315

Lab note: measured phosphorylation enrichment of DSSIRYLQEIY [FGG_Y135] was 0.733

phosphorylation enrichment in this record for MHFSNYVSKGS [PDGFRA_Y849_D846Y_YF] : 0.489

// phosphorylation enrichment lookup, sequence = PKGTGCIKTEL [STAT1_Y701_Y701C] , result: 0.808

* * *

- Assayed Target: c-Src SH2
- Assay Name: SH2 binding enrichment of the phosphorylated peptide, bacterial display (enrichment ratio); higher = better substrate or ligand; peptides without Tyr show the background
Please assign a class to every record based on measured SH2 binding enrichment, with ranges lower level: < 0.5; middle level: ≥ 0.5 and < 0.7; upper level: ≥ 0.7

Examples with answers:
{"Sequence": "WKKEIYEESST [MOCS2_Y170]", "Class Name": "lower level"}
{"Sequence": "PLDGEYFTLRI [TP53_Y327_Q331R]", "Class Name": "middle level"}
{"Sequence": "HKLSYYEYDFE [BTK_Y40]", "Class Name": "upper level"}
{"Sequence": "HFGCVYHGTLL [MET_Y1093]", "Class Name": "middle level"}
{"Sequence": "NKPTVCGVSPN [ABL1_Y226_Y226C]", "Class Name": "middle level"}
{"Sequence": "KKYFSYAWPFY [BRDT_Y291_H288Y]", "Class Name": "upper level"}

Dear colleague, I would appreciate it if you could identify the bin for MGRVKYGAFIN [GLB1_Y485_N484K_YF] and reply at your convenience.
upper level

Lab note: sort MASTSYDYCRV [BST2_Y6] into the matching SH2 binding enrichment band.
upper level

Into which bin does this sequence go? PMQLPYDSRWE [PDGFRA_Y582]
middle level

* * *

SH2 binding enrichment reference
- Assayed Target: Grb2 SH2 (UniProt P62993)
- Sequence (P62993 whole entry, looked up): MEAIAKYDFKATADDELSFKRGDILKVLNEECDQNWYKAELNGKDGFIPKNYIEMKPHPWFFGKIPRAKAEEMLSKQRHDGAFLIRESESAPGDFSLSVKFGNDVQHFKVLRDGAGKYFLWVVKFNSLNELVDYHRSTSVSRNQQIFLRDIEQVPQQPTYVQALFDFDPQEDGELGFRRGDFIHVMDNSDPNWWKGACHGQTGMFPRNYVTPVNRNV
- Assay Name: SH2 binding enrichment of the phosphorylated peptide, bacterial display (enrichment ratio); higher = better substrate or ligand; peptides without Tyr show the background

{"Sequence": "TYEPNYGTVKR [RAPGEF6_Y1447_Q1452R]", "Assayed Target": "Grb2 SH2 (UniProt P62993)", "SH2 binding enrichment": 0.803}

Let us examine a further case.
Sample PVEAAYQKVVA [HBB_Y131_Q128E] ; SH2 binding enrichment observed: 0.725
